# Format: in vivo, Male Sprague-Dawley rats
# CONDITION_CONTEXT: rats, iv, 2 min
Kindly return t if reported Liver uptake, 2 min is no lower than 10 % dose/organ; return f if it is lower.

Consider the following illustrative entries.
CN1[C@H]2CC[C@@H]1[C@@H](C[N+]13CC[S][99Tc-]14(=[O])[S]CC[N]4CC3)[C@@H](c1ccc(Cl)cc1)C2 (single isomer, unassigned; peak b) [peak B (1.19a)] : f
CN1[C@H]2CC[C@@H]1[C@@H](C[N+]13CC[S][99Tc-]14(=[O])[S]CC[N]4CC3)[C@@H](c1ccc(Cl)cc1)C2 (single isomer, unassigned; peak a) [Peak A (1.19a)] : f
COC(=O)C1C(c2ccc(Cl)cc2)CC2CCC1N2CC[S][99Tc-]12(=[O])[S]CC[N+]1(C)CC[S]2 (centres unmarked) : t
COC(=O)[C@H]1[C@@H](c2ccc(Cl)cc2)C[C@@H]2CC[C@H]1N2CCC[N+]12CC[S][99Tc-]13(=[O])[S]CC[N]3CC2 (single isomer, unassigned; peak a) [peak A of (2.6a)] : t

With those in mind, consider the next molecule.
Item COC(=O)[C@H]1[C@@H](c2ccc(Cl)cc2)C[C@@H]2CC[C@H]1N2CCC[N+]12CC[S][99Tc-]13(=[O])[S]CC[N]3CC2 (single isomer, unassigned; peak b) [peak B of (2.6a)] with Liver uptake, 2 min of 10 % dose/organ or above? t

* * *

Can you tell me Muscle uptake, 2 min for the items I'm about to list?
# Assay type: in vivo, Male Sprague-Dawley rats
# CONDITION_CONTEXT: rats, iv, 2 min
One number for each entry, in % dose/organ.

Examples from the recorded data:
COC(=O)[C@H]1[C@@H](c2ccc(Cl)cc2)C[C@@H]2CC[C@H]1N2CCC[N+]12CC[S][99Tc-]13(=[O])[S]CC[N]3CC2 (single isomer, unassigned; peak b) [peak B of (2.6a)] : 9.92
CN1[C@H]2CC[C@@H]1[C@@H](C[N+]13CC[S][99Tc-]14(=[O])[S]CC[N]4CC3)[C@@H](c1ccc(Cl)cc1)C2 (single isomer, unassigned; peak a) [Peak A (1.19a)] : 33.61
COC(=O)C1C(c2ccc(Cl)cc2)CC2CCC1N2CC[S][99Tc-]12(=[O])[S]CC[N+]1(C)CC[S]2 (centres unmarked) : 23.30

For each listed entry, give its Muscle uptake, 2 min.
1. COC(=O)[C@H]1[C@@H](c2ccc(Cl)cc2)C[C@@H]2CC[C@H]1N2CCC[N+]12CC[S][99Tc-]13(=[O])[S]CC[N]3CC2 (single isomer, unassigned; peak a) [peak A of (2.6a)]
2. CN1[C@H]2CC[C@@H]1[C@@H](C[N+]13CC[S][99Tc-]14(=[O])[S]CC[N]4CC3)[C@@H](c1ccc(Cl)cc1)C2 (single isomer, unassigned; peak b) [peak B (1.19a)]

1: 7.78; 2: 41.46

* * *

# Format: in vivo, Male Sprague-Dawley rats
# CONDITION_CONTEXT: rats, iv, 30 min
Can you tell me Brain uptake, 30 min for the items I'm about to list?
One number for each entry, in % dose/organ.

CN1[C@H]2CC[C@@H]1[C@@H](C(=O)[N+]13CC[S][99Tc-]14(=[O])[S]CC[N]4CC3)[C@@H](c1ccc(Cl)cc1)C2 (stereo partly shown) [Compound 1.19b] : 0.21
COC(=O)[C@H]1[C@@H](c2ccc(Cl)cc2)C[C@@H]2CC[C@H]1N2CCC[N+]12CC[S][99Tc-]13(=[O])[S]CC[N]3CC2 (single isomer, unassigned; peak b) [peak B of (2.6a)] : 0.094
COC(=O)C1C(c2ccc(Cl)cc2)CC2CCC1N2CCC[N+]12CC[S][99Tc-]13(=[O])[S]CC[N]3CC2 (mixture of isomers) [Compound 2.6a] : 0.11
COC(=O)[C@H]1[C@@H](c2ccc(Cl)cc2)C[C@@H]2CC[C@H]1N2CCC[N+]12CC[S][99Tc-]13(=[O])[S]CC[N]3CC2 (single isomer, unassigned; peak a) [peak A of (2.6a)] : 0.13
CN1[C@H]2CC[C@@H]1[C@@H](C[N+]13CC[S][99Tc-]14(=[O])[S]CC[N]4CC3)[C@@H](c1ccc(Cl)cc1)C2 (stereo partly shown) [Compound 1.19a] : 0.232
CN1[C@H]2CC[C@@H]1[C@@H](C[N+]13CC[S][99Tc-]14(=[O])[S]CC[N]4C(=O)C3)[C@@H](c1ccc(Cl)cc1)C2 (stereo partly shown) [Compound 1.21] : 0.070

Next item in the queue.
Fill in Brain uptake, 30 min for record COC(=O)C1C(c2ccc(Cl)cc2)CC2CCC1N2CC[S][99Tc-]12(=[O])[S]CC[N+]1(C)CC[S]2 (stereo not shown) [Compound 3.25] 0.06

* * *

# Type: in vivo, Male Sprague-Dawley rats
# CONDITION_CONTEXT: rats, iv, 2 min
Kindly return rule met if reported Brain uptake, 2 min is no lower than 0.3 % dose/organ; return rule not met if it is lower.

COC(=O)C1C(c2ccc(Cl)cc2)CC2CCC1N2CCC[N+]12CC[S][99Tc-]13(=[O])[S]CC[N]3CC2 (mixture of isomers) : rule not met

With those in mind, consider the next molecule.
Item CN1[C@H]2CC[C@@H]1[C@@H](C[N+]13CC[S][99Tc-]14(=[O])[S]CC[N]4CC3)[C@@H](c1ccc(F)cc1)C2 (stereo partly drawn) [Compound 1.20a] with Brain uptake, 2 min of 0.3 % dose/organ or above? rule met

* * *

Can you tell me Brain uptake, 2 min for the items I'm about to list?
# Type: in vivo, Male Sprague-Dawley rats
# CONDITION_CONTEXT: rats, iv, 2 min
Numbers only, in % dose/organ.

Examples from the recorded data:
CN1[C@H]2CC[C@@H]1[C@@H](C[N+]13CC[S][99Tc-]14(=[O])[S]CC[N]4CC3)[C@@H](c1ccc(Cl)cc1)C2 (single isomer, unassigned; peak b) [peak B (1.19a)] : 0.28
CN1[C@H]2CC[C@@H]1[C@@H](C(=O)[N+]13CC[S][99Tc-]14(=[O])[S]CC[N]4CC3)[C@@H](c1ccc(F)cc1)C2 (stereo partly shown) [Compound 1.20b] : 0.31
CN1[C@H]2CC[C@@H]1[C@@H](C[N+]13CC[S][99Tc-]14(=[O])[S]CC[N]4CC3)[C@@H](c1ccc(Cl)cc1)C2 (stereo partly shown) [Compound 1.19a] : 0.43

Next item in the queue.
Fill in Brain uptake, 2 min for record CN1[C@H]2CC[C@@H]1[C@@H](C[N+]13CC[S][99Tc-]14(=[O])[S]CC[N]4C(=O)C3)[C@@H](c1ccc(Cl)cc1)C2 (stereo partly shown) 0.11
